# System: A549
# ASSAY TEXT: Cytotoxicity against human A549 cells after 48 hrs by MTT assay
# Format: functional, cell-based
Recorded IC50 values for a group of compounds are listed next.

SMILES REPRESENTATION	BOUND OPERATOR	IC50 / µmol
CC[C@]12C=CCN3CC[C@]4(C(=C(C(=O)OC)C1)Nc1cc5c(cc14)[C@@H]1[C@H](O5)[C@@H](O)[C@@]4(CC)CC(C(=O)OC)=C5Nc6ccccc6[C@@]56CCN1[C@@H]46)[C@@H]32	=	5
CCC1=C[C@@H]2CN(C1)Cc1c([nH]c3ccccc13)[C@@](C(=O)OC)(c1cc3c(cc1OC)N(C)[C@H]1[C@@](O)(C(=O)OC)[C@H](OC(C)=O)[C@]4(CC)C=CCN5CC[C@]31[C@@H]54)C2	=	26.1
CC[C@]12C=CCN3CCc4c(n(c5ccccc45)[C@@H](OC)C1)[C@@H]32	>	40
CC[C@]12C=CCN3CC[C@]4(C(=C(C(=O)OC)C1)Nc1cc(OC)ccc14)[C@@H]32	=	12.8
CC[C@]12C=CCN3CCc4c(n(c5ccccc45)[C@@H](c4ccc5c(c4)[C@@]46CCN7CC=C[C@@]8(C[C@@H](C(=O)OC)[C@]4(N5)[C@@H]8C)[C@H]76)C1)[C@@H]32	=	4.8
COC(=O)[C@@H]1C[C@@]23C=CCN4CC[C@@]5(c6ccccc6N[C@]15[C@@H]2C)[C@@H]43	=	26.3
